Where a name gives a salt, the structure may show the parent alone.
Observed MIC values for S. aureus Oxford are listed in what follows.
Only the number, expressed in µg/mL, is required.

compound: C[C@@H](O)[C@H]1C(=O)N2C(C(=O)O)=C(S[C@@H]3CN[C@H](C(=O)Nc4cccc(C(=O)O)c4C(=O)O)C3)[C@H](C)[C@H]12
MIC, µg/mL: 0.25

Let me check: COc1ccc(NC(=O)[C@@H]2C[C@H](SC3=C(C(=O)O)N4C(=O)[C@H]([C@@H](C)O)[C@H]4[C@H]3C)CN2)c(C(=O)O)c1 [Example 31, dipotassium salt] , system S. aureus Oxford, measured MIC is 0.13

Let me check: CO/N=C(\C(=O)N[C@@H]1C(=O)N2C(C(=O)O)=C(CSc3nc(=O)c(=O)[nH]n3C)CS[C@H]12)c1csc(N)n1 [ceftriaxone, reference compound] , system S. aureus Oxford, measured MIC is 2

Let me check: C[C@@H](O)[C@H]1C(=O)N2C(C(=O)O)=C(S[C@@H]3CN[C@H](C(=O)Nc4cc(C(=O)O)ccc4O)C3)[C@H](C)[C@H]12 , system S. aureus Oxford, measured MIC is 0.13
